experiment: gradient 5% acetonitrile 3 min, to 50% in 2 min, to 85% in 15 min, held 3 min, 100 µL/min; details: column: Zorbax Extend-C18 2.1 x 50 mm; eluents: water / acetonitrile, 0.1% formic acid
Categories are assigned from the measured RP-LC retention time using these intervals: bin A = under 800 s, bin B = from 800 s up to 900 s, bin C = 900 s and over

Each compound maps to one class by RP-LC retention time. Which class for CCOc1ccc(-c2cc(=O)n(CCCC(=O)N3CCN(S(C)(=O)=O)CC3)cn2)cc1 ?
bin A

Would you mind sorting O=C(Nc1nc(-c2ccccc2)cs1)c1ccc(F)cc1 into the appropriate category?
bin C

Into which bin does this compound go? Cc1cccc(C)c1NC(=O)Cn1nc2c(Oc3cccc(F)c3)nccn2c1=O
bin B

Assign a bin to Cc1ccc(C)c(NC(=O)Cc2nnc(-c3ccc4ncccc4c3)o2)c1
bin A

Just checking, what class would you give Cc1ccc(Sc2nccnc2N2CCCC(C(=O)NCc3ccccn3)C2)cc1 (configuration not stated) here?
bin A

Class? Entry: Cc1cc(C)n(CCC(=O)NCC23CCC=C2N(CC2CC2)C(=O)CC3)n1 (configuration not stated)
bin A

Which class does Cc1ccc(CNC(=O)CCCn2c(=O)c3sccc3n(CC(=O)N3CCCCC3C)c2=O)cc1 (configuration not stated) fall in?
bin B

Exam item: assign COc1ccc(CNC(=O)C2(C)CCCN(S(=O)(=O)c3ccc(Cl)cc3)C2)cc1 (configuration not stated) to the correct category.
bin C

State the class of the compound shown: Cc1cc(C(N)=O)c(C)n1Cc1ccc(F)cc1
bin A

====

Would you kindly list RP-LC retention time for each of these compounds?
experiment: gradient 5% acetonitrile 3 min, to 50% in 2 min, to 85% in 15 min, held 3 min, 100 µL/min; conditions: column: Zorbax Extend-C18 2.1 x 50 mm; eluents: water / acetonitrile, 0.1% formic acid
Give just the numeric value; s need not be written.

Requested field: RP-LC retention time. Item: COc1cc(OC)c(NC(=O)CN2C(=O)CN(C)C(=O)c3ccccc32)cc1Cl
719

Param item = CCCN(C)c1nccn2c(=O)n(CC(=O)Nc3ccc(F)c(Cl)c3)nc12 ; retrieve measured RP-LC retention time.
731

Would you mind telling me what RP-LC retention time value was observed for COc1cc(-c2ccc(SCC(=O)c3ccc(C)cc3)nn2)cc(OC)c1OC ?
949

Fill in: RP-LC retention time of O=C(COc1coc(CN2CCc3ccccc32)cc1=O)NCc1ccc2c(c1)OCO2 is ___
781

====

experiment: gradient 5% acetonitrile 3 min, to 50% in 2 min, to 85% in 15 min, held 3 min, 100 µL/min; conditions: column: Zorbax Extend-C18 2.1 x 50 mm; eluents: water / acetonitrile, 0.1% formic acid
Could you please report measured RP-LC retention time for the items listed next?
Answer format: numeric, s implied, no suffix.

Requested field: RP-LC retention time. Item: O=S(=O)(c1ccc2c(c1)CCC2)N1CCCn2nc(-c3cccs3)cc2C1
1060

Field request: RP-LC retention time | item: Cc1ccc(-c2noc(-c3ccccc3S(=O)(=O)NCCN3CCC(C)CC3)n2)cc1
771

Form field: reported RP-LC retention time of COc1ccc(Cl)cc1NC(=O)N1CCC(n2cnc3ccc(F)cc3c2=O)CC1
871

May I ask what RP-LC retention time has been recorded for CCn1cc(C)c(C(=O)O)c1CC(=O)NCc1ccc2c(c1)OCO2 ?
734

Find the recorded RP-LC retention time belonging to O=C(Cc1ccccc1Cl)Nc1cc(N2CCOCC2)ncn1 and report it.
635

RP-LC retention time for CCOc1ccccc1NC(=O)C1CCCN(S(=O)(=O)c2ccc(OC)c(C)c2)C1 (stereo unspecified) ?
1080

====

assay: gradient 5% acetonitrile 3 min, to 50% in 2 min, to 85% in 15 min, held 3 min, 100 µL/min; conditions: column: Zorbax Extend-C18 2.1 x 50 mm; eluents: water / acetonitrile, 0.1% formic acid
Each record is given 1.0 if its reported RP-LC retention time is strictly below 700 s. Records at or above 700 s are given 0.0.

Please indicate whether the reported RP-LC retention time of CCN1C(=O)c2c(C(=O)NCCCc3ccccc3)ncn2CC1(C)C(=O)NC1CCCC1 (stereo not drawn) is strictly below 700 s.
0.0

State whether 700 s exceeds RP-LC retention time recorded for CC(C)OCCCNC(=O)c1c2c(cn(-c3ccccc3)c1=O)C(=O)CC(C)(C)C2 .
0.0

Answer whether the compound CCn1nnc(NCc2ccc(-c3ccc(Br)cc3Cl)o2)n1 has RP-LC retention time strictly less than 700 s
0.0

Quick check: RP-LC retention time of COc1ccc(-c2n[nH]c3c2C(c2cccc(O)c2)NC3=O)cc1 (stereo not drawn) under 700 s?
1.0

Answer whether the compound COc1cccc(NC(=O)C2(C)CCCCC(=O)N2)c1 (stereo not drawn) has RP-LC retention time strictly less than 700 s
1.0

RP-LC retention time under 700 s? Item: O=C(NC1CCN(Cc2ccccc2)CC1)c1ccc2nc3ccc(Cl)cc3c(=O)n2c1
1.0

Threshold test, RP-LC retention time < 700 s: Cc1ccc2c(C(=O)NCc3ccccc3C)cc(NC(=O)C(C)C)cc2n1
1.0

Consider the compound COCCN1C(=O)CCC2(CNC(=O)c3sccc3C)CCCC=C12 (stereo not drawn) . Is its RP-LC retention time strictly less than 700 s?
0.0

====

Give measured RP-LC retention time for each item. Keep answers brief.
assay: gradient 5% acetonitrile 3 min, to 50% in 2 min, to 85% in 15 min, held 3 min, 100 µL/min; conditions: column: Zorbax Extend-C18 2.1 x 50 mm; eluents: water / acetonitrile, 0.1% formic acid
Quick note: give the figure in s, leave out the unit.

Any idea what its RP-LC retention time is? The compound is COc1ccc(-c2ccnc3nc(C4CC4)nn23)c(F)c1
797

Quick check: RP-LC retention time of O=C(Nc1nc(-c2cccnc2)cs1)C1CN(c2nc3ccccc3s2)C1 ?
592

I am curious: what RP-LC retention time value has been reported for COc1ccc(CN2C=C(C(=O)OCc3noc(-c4ccccc4)n3)C(C)=NS2(=O)=O)cc1 ?
1100

Given Cc1cccc(-c2noc(C3CCCN3S(=O)(=O)c3ccc(Cl)cc3C)n2)c1 (configuration not stated) , state its recorded RP-LC retention time.
1300

Recorded RP-LC retention time of CC1CCN(c2cnn(CC(=O)Nc3cccc(Cl)c3F)c(=O)c2Cl)CC1 , please.
1020

Would you mind telling me what RP-LC retention time value was observed for CC1CCN(S(=O)(=O)c2ccc(-c3nnc(C(=O)N4CCN(C)CC4)o3)cc2)CC1 ?
665

Consider the compound Cc1cccc2c(C(N)=O)cc(N3CCN(C)CC3)nc12 and give its measured RP-LC retention time.
579

Which measured RP-LC retention time value corresponds to Cc1ccc(C2Cn3cnc(C(=O)N4CCC(C(=O)NCCc5ccccc5)CC4)c3CO2)cc1 (configuration not stated) ?
826

Please look up its RP-LC retention time: CCc1cc(=O)n(CC(=O)Nc2cccc(C)c2)c(N2CCOCC2)n1
770

Returns the measured RP-LC retention time for the input compound. Input: COc1ccc(OC)c(NC(=O)N2CCC(n3cnc4cccnc43)CC2)c1
649

Reported RP-LC retention time for Cn1c(=O)n(CC(=O)Nc2ccc(F)cc2F)c(=O)c2cnc(-c3ccccc3)nc21 : what is it?
1000

So what does the record say about RP-LC retention time for CCOc1ccc(S(=O)(=O)N2CCc3c(c(-c4nnc(-c5ccccc5F)o4)nn3C)C2)cc1 ?
945

Reported RP-LC retention time, compound CCOc1ccc(NC(=O)c2cc(C)n3nc(C)cc3n2)cc1 : ____
976

Could you share which RP-LC retention time value was measured for Cc1cc(N2CCN(C(=O)C(C)Oc3cccc(Cl)c3)CC2)nc2nncn12 (configuration not stated) ?
644

I have this compound here, O=S(=O)(c1ccc(F)c(F)c1)N1CCC(CN2CCCCCC2)CC1 , and I need its recorded RP-LC retention time.
666

Data request, read-out RP-LC retention time, for COCCNC(=O)C1CCCCN1S(=O)(=O)c1ccc(F)cc1 (configuration not stated)
769

Entry Cc1cccc(-c2noc(C3CCCN3S(=O)(=O)c3ccc(F)c(Cl)c3)n2)c1 (configuration not stated) has what RP-LC retention time?
1220

Entry Cc1nn(-c2ccc(N3CCCCC3)nn2)c(C)c1CCC(=O)NCc1ccco1 has what RP-LC retention time?
667

For the compound shown here, CCOC(=O)c1ccc(NS(=O)(=O)c2cc(-c3c(CC)noc3NC(C)=O)ccc2C)cc1 , give the reported RP-LC retention time.
822

Quick check: RP-LC retention time of O=S(=O)(Cc1ccc(Cl)cc1)N1CCC(n2c(-c3ccco3)nc3cccnc32)C1 (configuration not stated) ?
927

Quick one: RP-LC retention time of CCN1CCN(c2c(S(=O)(=O)c3ccc(OC)cc3)cnc3cc(OC)c(OC)cc23)CC1 ?
628

I have this compound here, CSc1cccc(NC(=O)C2CCN(S(=O)(=O)c3ccc4[nH]c(=O)ccc4c3)CC2)c1 , and I need its recorded RP-LC retention time.
784

Name the recorded RP-LC retention time for COc1ccc(Nc2c(C(=O)N3CCC(C)CC3)cnc3nc(C)ccc23)cc1 .
638

Recorded RP-LC retention time of Cc1nc(-c2cccc(NC(=O)c3ccc(N4CCCC4)nn3)c2)cs1 , please.
676

Looking for the measured RP-LC retention time of O=C1CCSc2ccc(S(=O)(=O)N3CCN(c4ccccn4)CC3)cc2N1 , can you help?
612

// returns reported RP-LC retention time for input COC(=O)[C@H](Cc1ccc([N+](=O)[O-])cc1)NC(=O)c1cccc2ccccc12
909

Recorded RP-LC retention time for COc1cccc(N2CC(C(=O)Nc3nnc(-c4csc(C)n4)o3)CC2=O)c1 (configuration not stated) , please?
817

Value lookup for RP-LC retention time; key = COC(=O)c1cn(CC(=O)NC(C)c2ccc3c(c2)OCCCO3)c2ccccc12 (configuration not stated)
835

What value of RP-LC retention time has been recorded for this entry: CCn1nccc1-c1cccc(-c2noc(-c3ccc(Br)o3)n2)c1
1180

Look up RP-LC retention time: COc1cccc(C2Cn3nnc(-c4nc(-c5cccc(F)c5)no4)c3CO2)c1 (configuration not stated)
1130

Consider the compound O=C(NCc1ccc2c(c1)CCCN2C(=O)C1CCC1)c1ccc(C(F)(F)F)cc1 and give its measured RP-LC retention time.
990

Fill in: RP-LC retention time of Cc1ccc(-c2nc(-c3ccc4ncn(C(C)C)c4c3)no2)cc1 is ___
857
